# Tested on: rodent lifetime carcinogenesis bioassay, tumor incidence TD50
# procedure details: carcinogenic potency in animals, long-term in vivo studies, CPDB compilation (AID 1745844)
# applied conditions: mouse; strain BALB/cStCrlfC3Hf/Nctr; males; in feed; site: testis; lesion: interstitial-cell tumor; dosed 121 weeks; study length 126 weeks
parameter measured: TD50

Record request: TD50 value, item CC/C(=C(/CC)c1ccc(O)cc1)c1ccc(O)cc1
0.0215 mg/kg/day

---

# Test system: rodent lifetime carcinogenesis bioassay, tumor incidence TD50
# procedure details: carcinogenic potency in animals, long-term in vivo studies, CPDB compilation (AID 1745844)
# applied conditions: rat; strain Wistar; females; in feed; site: liver; lesion: hepatocellular adenoma; dosed 78 weeks; study length 78 weeks
parameter measured: TD50

Provide the documented TD50 with rodent lifetime carcinogenesis bioassay, tumor incidence TD50 as the system for O=P(O)(OCC(Br)CBr)OCC(Br)CBr (stereo unspecified)
20.6 mg/kg/day

---

# System: rodent lifetime carcinogenesis bioassay, tumor incidence TD50
# procedure details: carcinogenic potency in animals, long-term in vivo studies, CPDB compilation (AID 1745844)
# applied conditions: rat; strain F344/DuCrj; females; in drinking water; site: forestomach; lesion: papilloma; dosed 50 weeks; study length 50 weeks
parameter measured: TD50 (mg/kg/day)
Give bare numbers, in mg/kg/day.

# get_value(readout='TD50', item= CCCCN(N=O)C(N)=O )
4

---

# Tested on: rodent lifetime carcinogenesis bioassay, tumor incidence TD50
# procedure details: carcinogenic potency in animals, long-term in vivo studies, CPDB compilation (AID 1745844)
# applied conditions: mouse; strain NMRI; both sexes; in drinking water; site: any site (literature study); lesion: benign tumor; dosed 101 weeks; study length 104 weeks
parameter measured: TD50
Field: value (include unit after the number)

Form field: reported TD50 of CCOC(N)=O
0.434 mg/kg/day

---

# Tested on: rodent lifetime carcinogenesis bioassay, tumor incidence TD50
# procedure details: carcinogenic potency in animals, long-term in vivo studies, CPDB compilation (AID 1745844)
# applied conditions: rat; strain Fischer 344; females; in feed; site: mammary gland; lesion: fibroadenoma; dosed 130 weeks; study length 130 weeks
parameter measured: TD50
Note to self: number, then unit, no commentary.

// returns reported TD50 for input ClC1=C(Cl)C2(Cl)C3C(Cl)C(Cl)CC3C1(Cl)C2(Cl)Cl (stereo unspecified)
0.32 mg/kg/day

---

# Tested on: rodent lifetime carcinogenesis bioassay, tumor incidence TD50
# procedure details: carcinogenic potency in animals, long-term in vivo studies, CPDB compilation (AID 1745844)
# applied conditions: rat; strain Sprague-Dawley; both sexes; in feed; site: any site (literature study); lesion: malignant tumor; dosed 130 weeks; study length 130 weeks
The source made the active and inactive calls. No rule for the calls is given here.
parameter measured: TD50

O=S(=O)(O)NC1CCCCC1 : 30700 mg/kg/day (inactive)

Turning now to a further compound:
Name the recorded TD50 for O=C1NS(=O)(=O)c2ccccc21 .
4100 mg/kg/day (inactive)

---

# Test system: rodent lifetime carcinogenesis bioassay, tumor incidence TD50
# procedure details: carcinogenic potency in animals, long-term in vivo studies, CPDB compilation (AID 1745844)
# applied conditions: mouse; strain B6C3F1; females; in drinking water; site: any site (literature study); lesion: several types; types named in the paper; dosed 104 weeks; study length 104 weeks
parameter measured: TD50 (mg/kg/day)
Numbers only, in mg/kg/day.

O=NO : 459
O=C(O)C1C2C=CC(C2)C1(C(=O)O)[N+](=O)[O-] (stereo not drawn) : 169

# value lookup — system rodent lifetime carcinogenesis bioassay, tumor incidence TD50, readout TD50, item c1ccncc1
338

---

# System: rodent lifetime carcinogenesis bioassay, tumor incidence TD50
# procedure details: carcinogenic potency in animals, long-term in vivo studies, CPDB compilation (AID 1745844)
# applied conditions: rat; strain Donryu; males; in drinking water; site: digestive tract; lesion: several types; types named in the paper; dosed 65 weeks; study length 65 weeks
parameter measured: TD50

Recorded TD50 for CCCCCN(N=O)C(N)=O , please?
0.532 mg/kg/day

---

Exercise: state measured TD50 for each of the compounds provided.
# Test system: rodent lifetime carcinogenesis bioassay, tumor incidence TD50
# procedure details: carcinogenic potency in animals, long-term in vivo studies, CPDB compilation (AID 1745844)
# applied conditions: mouse; strain CDF1; females; in feed; site: liver; lesion: hepatocellular adenoma; dosed 84 weeks; study length 84 weeks
One number for each entry, in mg/kg/day.

Cc1cnc2ccc3c(nc(N)n3C)c2n1 : 14.2

Lab note: need TD50 for Cc1cc2c(nc1N)[nH]c1ccccc12 on rodent lifetime carcinogenesis bioassay, tumor incidence TD50, anyone have it?
118

---

# System: rodent lifetime carcinogenesis bioassay, tumor incidence TD50
# procedure details: carcinogenic potency in animals, long-term in vivo studies, CPDB compilation (AID 1745844)
# applied conditions: rat; strain Wistar; females; inhaled; site: lung; lesion: adenocarcinoma; dosed 78 weeks; study length 126 weeks
parameter measured: TD50 (mg/kg/day)
Give bare numbers, in mg/kg/day.

// lookup TD50 for O=S(=O)([O-])[O-].[Cd+2]
0.112

---

# Test system: rodent lifetime carcinogenesis bioassay, tumor incidence TD50
# procedure details: carcinogenic potency in animals, long-term in vivo studies, CPDB compilation (AID 1745844)
# applied conditions: rat; strain Fischer 344; females; in feed; site: thyroid gland; lesion: follicular-cell carcinoma; dosed 59 weeks; study length 104 weeks
parameter measured: TD50

Quick check: TD50 of CN(C)c1ccc(Cc2ccc(N(C)C)cc2)cc1 ?
27.7 mg/kg/day

---

# Tested on: rodent lifetime carcinogenesis bioassay, tumor incidence TD50
# procedure details: carcinogenic potency in animals, long-term in vivo studies, CPDB compilation (AID 1745844)
# applied conditions: rat; strain Charles River CD (Sprague-Dawley); females; in feed; site: mammary gland; lesion: adenoma; dosed 97 weeks; study length 105 weeks
parameter measured: TD50 (mg/kg/day)
One number for each entry, in mg/kg/day.

Entry under review: CCOCCc1c(-c2ccccc2)nc(N)n2ncnc12 . Reported TD50?
3010

---

# System: rodent lifetime carcinogenesis bioassay, tumor incidence TD50
# procedure details: carcinogenic potency in animals, long-term in vivo studies, CPDB compilation (AID 1745844)
# applied conditions: hamster; strain Syrian Golden; both sexes; by gavage; site: larynx; lesion: papillary polyp; dosed 53 weeks; study length 59 weeks
parameter measured: TD50

Looking for the measured TD50 of C=CCN(CC=C)N=O , can you help?
3.69 mg/kg/day

---

# Test system: rodent lifetime carcinogenesis bioassay, tumor incidence TD50
# procedure details: carcinogenic potency in animals, long-term in vivo studies, CPDB compilation (AID 1745844)
# applied conditions: mouse; strain B6C3F1; males; inhaled; site: Harderian gland; lesion: adenoma + carcinoma; dosed 26 weeks; study length 53 weeks
parameter measured: TD50

Can you share its TD50? I mean this compound: C=CC(=C)C
96.8 mg/kg/day

---

# Tested on: rodent lifetime carcinogenesis bioassay, tumor incidence TD50
# procedure details: carcinogenic potency in animals, long-term in vivo studies, CPDB compilation (AID 1745844)
# applied conditions: mouse; strain Crj: CD-1 (ICR); females; in feed; site: urinary bladder; lesion: mesenchymal neoplasm; dosed 78 weeks; study length 78 weeks
The source made the active and inactive calls. The rule behind the calls is not given here.
parameter measured: TD50

What does the data say about its TD50? Entry: c1ccc2[nH]c(-c3cscn3)nc2c1
16300 mg/kg/day (inactive)

---

# Test system: rodent lifetime carcinogenesis bioassay, tumor incidence TD50
# procedure details: carcinogenic potency in animals, long-term in vivo studies, CPDB compilation (AID 1745844)
# applied conditions: mouse; strain B6C3F1; males; in feed; site: forestomach + liver + lung; lesion: squamous-cell carcinoma + squamous-cell papilloma + hepatocellular adenoma + hepatoblastoma + hepatocellular carcinoma + alveolar/; dosed 103 weeks; study length 104 weeks
parameter measured: TD50 (mg/kg/day)
Numbers only, in mg/kg/day.

May I ask what TD50 has been recorded for Nc1c(Br)cc(Br)c2c1C(=O)c1ccccc1C2=O ?
465

---

# Test system: rodent lifetime carcinogenesis bioassay, tumor incidence TD50
# procedure details: carcinogenic potency in animals, long-term in vivo studies, CPDB compilation (AID 1745844)
# applied conditions: mouse; strain ICR; females; in feed; site: lung; lesion: adenoma; dosed 78 weeks; study length 78 weeks
parameter measured: TD50 (mg/kg/day)
Answers are plain numbers, in mg/kg/day.

For the record CCn1cc(C(=O)O)c(=O)c2cc3c(cc21)OCO3 , what value of TD50 is listed for rodent lifetime carcinogenesis bioassay, tumor incidence TD50?
55.1

---

# System: rodent lifetime carcinogenesis bioassay, tumor incidence TD50
# procedure details: carcinogenic potency in animals, long-term in vivo studies, CPDB compilation (AID 1745844)
# applied conditions: rat; strain F344/DuCrj; females; in drinking water; site: mammary gland; lesion: adenocarcinoma; dosed 103 weeks; study length 111 weeks
parameter measured: TD50

GET /values?readout=TD50&item= CCN(N=O)C(N)=O
2.54 mg/kg/day
